Tested on: senescent IMR90 ER:RAS cells (4-OHT-induced)
Assay overview: Nuclei count (Hoechst, high content imaging) senolytic assay, oncogene-induced senescence (OIS) model, senescent cells
Type: cell-based, human
Stated conditions: Homo sapiens, IMR-90, 72 h, Senescent, log (dose) [M] -6.66, 72 h, mean n=3 (Fig 3C); read-out: Mean % Cell Survival
Readout type: viability at 0.2188 µM (%)
Reply with just the number (in %).

Answered cases to consult:
Compound	viability at 0.2188 µM, %
O=c1c(O)c(-c2ccc(O)cc2O)oc2cc(O)cc(O)c12	92.4
CO[C@H]1C[C@@H]2CC[C@@H](C)[C@@](O)(O2)C(=O)C(=O)N2CCCC[C@H]2C(=O)O[C@H]([C@H](C)C[C@@H]2CC[C@H](n3cnnn3)[C@H](OC)C2)CC(=O)[C@H](C)/C=C(\C)[C@@H](O)[C@@H](OC)C(=O)[C@H](C)C[C@H](C)/C=C/C=C/C=C/1C [Zotarolimus, zotarolimus, reference compound]	95.9
COc1cc(/C=C/C(=O)O[C@H]2CC[C@]34C[C@]35CC[C@]3(C)[C@@H]([C@H](C)CCC=C(C)C)CC[C@@]3(C)[C@@H]5CC[C@H]4C2(C)C)ccc1O	142

Prompt: viability at 0.2188 µM lookup needed for COC[C@H]1C[C@@H](c2nc(-c3ccc4c(c3)COc3cc5c(ccc6nc([C@@H]7CC[C@H](C)N7C(=O)[C@@H](NC(=O)OC)C(C)C)[nH]c65)cc3-4)c[nH]2)N(C(=O)[C@H](NC(=O)OC)c2ccccc2)C1 [Velpatasvir, velpatasvir, reference compound] , thanks.
Response: 83.6

Prompt: Please look up its viability at 0.2188 µM: CO[C@H]1C[C@@H]2CC[C@@H](C)[C@@](O)(O2)C(=O)C(=O)N2CCCC[C@H]2C(=O)O[C@H]([C@H](C)C[C@@H]2CC[C@@H](OP(C)(C)=O)[C@H](OC)C2)CC(=O)[C@H](C)/C=C(\C)[C@@H](O)[C@@H](OC)C(=O)[C@H](C)C[C@H](C)/C=C/C=C/C=C/1C [Ridaforolimus, ridaforolimus, reference compound]
Response: 156

Prompt: GET /values?readout=viability at 0.2188 µM&item= `O=c1oc2c(O)c(O)cc3c(=O)oc4c(O)c(O)cc1c4c23`
Response: 122
